Source: patent US20230227572A1

Listing of entries alongside the reported EC50 (read off the curve).
TARGET_DESC: T1, human PVRIG protein on the cell membrane surface (human, UniProt Q6DKI7 41-326)
T1 construct: Also used here for the natural PVRIG on NKG cells and human lymphocytes; also called 293T-human PVRIG cell line; PVRIG on NKG cell line
T1 sequence: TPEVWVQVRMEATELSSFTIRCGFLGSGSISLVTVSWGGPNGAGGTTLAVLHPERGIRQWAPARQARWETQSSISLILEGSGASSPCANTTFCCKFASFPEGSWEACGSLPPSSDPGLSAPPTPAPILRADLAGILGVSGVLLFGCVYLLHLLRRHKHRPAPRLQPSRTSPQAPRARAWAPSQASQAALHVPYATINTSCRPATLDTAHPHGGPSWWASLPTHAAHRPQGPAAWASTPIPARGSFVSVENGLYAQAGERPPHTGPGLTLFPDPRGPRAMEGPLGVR
EXPERIMENT_DESCRIPTION: flow cytometry on 293T-human PVRIG cells, AF647 mouse anti-human IgG-Fc, percent positive cells

{"BINDER": "Antibody 4-hu10 (antibody, human IgG4 S228P, kappa, V domains shown, Humanized Antibody 4; heavy chain IgG4 with S228P already in the entry) VH: EVQLVQSGAEVKKPGSSVKVSCKASGYTFSSFSIEWVRQAPGQGLEWIGEILPGSNSTNYNEKFKGRVTFTADTSTNTAYMELSSLRSEDTAVYYCSSYWFAYWGQGTLVTVSS VL: DIVMTQSPDSLAVSLGERATINCKSSQSLLNSGNQKNYLAWYQQKPGQPPKLLIYGASTRESGVPDRFSGSGSGTDFTLTISSLQAEDVAVYYCQNAHSYPPTFGQGTKLEIKR", "EC50 (read off the curve)": "~0.5 ng/mL"}
{"BINDER": "Antibody 4-hu11 (antibody, human IgG4 S228P, kappa, V domains shown, Humanized Antibody 4; heavy chain IgG4 with S228P already in the entry) VH: EVQLVQSGAEVKKPGSSVKVSCKASGYTFSSFSIEWVRQAPGQGLEWIGEILPGSNSTNYNEKFKGKATFTADTSTNTAYMELSSLRSEDTAVYYCSSYWFAYWGQGTLVTVSS VL: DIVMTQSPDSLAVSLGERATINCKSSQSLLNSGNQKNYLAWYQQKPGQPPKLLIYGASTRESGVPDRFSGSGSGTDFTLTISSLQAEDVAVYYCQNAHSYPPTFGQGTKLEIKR", "EC50 (read off the curve)": "~3 ng/mL"}
{"BINDER": "Antibody 4-hu8 (antibody, human IgG4 S228P, kappa, V domains shown, Humanized Antibody 4; heavy chain IgG4 with S228P already in the entry; also called Antibody 4-hub [sic]) VH: EVQLVQSGAEVKKPGSSVKVSCKASGYTFSSFSIEWVRQAPGQGLEWMGEILPGSNSTNYNEKFKGRVTFTADESTSTAYMELSSLRSEDTAVYYCSSYWFAYWGQGTLVTVSS VL: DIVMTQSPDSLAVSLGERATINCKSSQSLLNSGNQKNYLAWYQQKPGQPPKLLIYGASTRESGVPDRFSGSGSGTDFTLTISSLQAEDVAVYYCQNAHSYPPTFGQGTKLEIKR", "EC50 (read off the curve)": "~1 ng/mL"}
{"BINDER": "Antibody 4-hu4 (antibody, human IgG4 S228P, kappa, V domains shown, Humanized Antibody 4; heavy chain IgG4 with S228P already in the entry) VH: EVQLVQSGAEVKKPGSSVKVSCKASGGTFSSFSIEWVRQAPGQGLEWIGEILPGSNSTNYNEKFKGRVTFTADESTSTAYMELSSLRSEDTAVYYCSSYWFAYWGQGTLVTVSS VL: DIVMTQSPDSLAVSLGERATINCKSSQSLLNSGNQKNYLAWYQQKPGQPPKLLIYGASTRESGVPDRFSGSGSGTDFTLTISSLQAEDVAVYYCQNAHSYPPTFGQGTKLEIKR", "EC50 (read off the curve)": "~20 ng/mL"}
